Tested target: AmtB–GlnK complex (Escherichia coli, UniProt P69681)
Construct: pelB signal peptide (N, cleaved yes); 10x His-tag (N, cleaved yes); made in house; host or cells: AmtB: Escherichia coli C41(DE3), pET15b; stGlnK: Escherichia coli ArcticExpress (DE3) RIL, pET28b
Sequence (P0AC55 whole entry Y51F, one chain of several): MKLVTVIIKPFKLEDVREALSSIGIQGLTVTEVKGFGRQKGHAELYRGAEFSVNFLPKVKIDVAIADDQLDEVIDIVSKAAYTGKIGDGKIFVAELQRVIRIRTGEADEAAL
Method summary: Native MS lipid titration, lipid binding to AmtB–GlnK (equilibrium-coupled binding model)
Test parameters: KD,AGL3, third lipid binding to AmtB–GlnK, 50 µM ADP, 298 K
Measurement type: Kd (µM)
Supply the numeric figure in µM, leaving out any unit text.

Quick one: Kd of CCCCCCCC/C=C\CCCCCCCC(=O)OC[C@H](COP(=O)(O)OCCN)OC(=O)CCCCCCC/C=C\CCCCCCCC [DOPE (cis)] ?
32.9

Quick one: Kd of CCCCCCCCCCCCCC(=O)OC[C@H](COP(=O)(O)OCC(O)CO)OC(=O)CCCCCCCCCCCCC (stereo partly drawn) ?
19.6

Quick one: Kd of CCCCCCCC/C=C\CCCCCCCC(=O)O[C@H](COC(=O)CCCCCCCCCCCCCCC)COP(=O)(O)OCC(O)CO (stereo partly drawn) ?
34.3

---

pKd values for the compounds below.
Tested target: AmtB (Escherichia coli)
Construct: pelB signal peptide (N, cleaved yes); 10x His-tag (N, cleaved yes); made in house; host or cells: Escherichia coli C41(DE3), pET15b
Sequence (P69681 23-428): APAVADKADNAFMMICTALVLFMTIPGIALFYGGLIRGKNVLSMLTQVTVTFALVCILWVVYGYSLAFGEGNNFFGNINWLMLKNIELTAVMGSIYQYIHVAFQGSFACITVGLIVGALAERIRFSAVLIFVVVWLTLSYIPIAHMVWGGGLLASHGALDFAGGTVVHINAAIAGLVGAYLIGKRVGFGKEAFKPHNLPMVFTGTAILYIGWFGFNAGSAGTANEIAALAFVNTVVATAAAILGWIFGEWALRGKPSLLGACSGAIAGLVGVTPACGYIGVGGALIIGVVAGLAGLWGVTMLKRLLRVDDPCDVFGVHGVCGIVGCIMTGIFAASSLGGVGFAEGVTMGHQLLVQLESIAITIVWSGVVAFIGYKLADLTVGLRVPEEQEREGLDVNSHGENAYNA
Method summary: Native MS lipid titration, lipid binding to AmtB (equilibrium-coupled binding model)
Test parameters: KD,AL2, second lipid binding to AmtB, 50 µM ADP, 298 K
Method: A stock of ADP was prepared by dissolving the ammonium salt form of ADP in water followed by adjusting the pH with ammonium hydroxide to 7.0. Serial dilutions into MS buffer (200 mM ammonium acetate, 0.5% C8E4, and pH adjusted to 7.4 with ammonium hydroxide) supplemented with 5 mM BME was performed to prepare ADP at certain concentrations. Phospholipids were prepared as previously described. […] Phospholipid concentration was determined by phosphorus analysis.
API: returns pKd as number; meaning -log10 of concentration in mol/L.

Some entries whose results are on file:
Quick one: pKd of CCCCCCCC/C=C\CCCCCCCC(=O)O[C@H](COC(=O)CCCCCCCCCCCCCCC)COP(=O)([O-])OCC[N+](C)(C)C [POPC] ?
4.17

Quick one: pKd of CCCCCCCC/C=C\CCCCCCCC(=O)O[C@H](COC(=O)CCCCCCCCCCCCCCC)COP(=O)(O)OCC(O)CO (stereo partly shown) [POPG] ?
4.48

Quick one: pKd of CCCCCCCC/C=C\CCCCCCCC(=O)O[C@H](COC(=O)CCCCCCCCCCCCCCC)COP(=O)(O)OC[C@H](N)C(=O)O [POPS] ?
4.66

Continuing:
Quick one: pKd of CCCCCCCCCCCC(=O)OC[C@H](COP(=O)(O)OCC(O)CO)OC(=O)CCCCCCCCCCC (stereo partly shown) [DLPG] ?
4.41

---

Tested target: AmtB (Escherichia coli)
Construct: pelB signal peptide (N, cleaved yes); 10x His-tag (N, cleaved yes); made in house; host or cells: Escherichia coli C41(DE3), pET15b
Method summary: Native MS lipid titration, lipid binding to AmtB (equilibrium-coupled binding model)
Test parameters: KD,AL3, third lipid binding to AmtB, 50 µM ADP, 298 K
pKd values for the compounds below.
API: returns pKd as number; meaning -log10 of concentration in mol/L.

Quick one: pKd of CCCCCCCC/C=C\CCCCCCCC(=O)OC[C@H](COP(=O)(O)OCCN)OC(=O)CCCCCCC/C=C\CCCCCCCC [DOPE (cis)] ?
4.24

Quick one: pKd of CCCCCCCC/C=C\CCCCCCCC(=O)O[C@H](COC(=O)CCCCCCCCCCCCCCC)COP(=O)(O)OC[C@H](N)C(=O)O [POPS] ?
4.52

Would you kindly look at the next entry?
Quick one: pKd of CCCCCCCC/C=C\CCCCCCCC(=O)O[C@H](COC(=O)CCCCCCCCCCCCCCC)COP(=O)(O)OCCN [POPE] ?
4.02
